tested on: NCI-H460; assay: Cytotoxicity against human H460 cells assessed as cell viability after 3 days by sulforhodamine B assay; type: functional, cell-based; details: NCI-H460, 72 h

{"columns": ["SMI", "COMPARATIVE SIGN", "IC50, nM"],
 "data": [
  ["CC(=O)OCc1cn(Cc2ccc(Cl)cc2)c2ccccc12", "=", 39],
  ["O=C(O)c1cn(Cc2ccccc2)c2ccccc12", ">", 31600],
  ["N#Cc1cn(Cc2cccc(Cl)c2)c2ccccc12", ">", 31600],
  ["CC(C)Cn1cc(C=O)c2ccccc21", "=", 1990],
  ["OCc1cn(Cc2ccc(C(F)(F)F)cc2)c2ccccc12", "=", 1250],
  ["COc1ccc2c(c1)c(CO)cn2Cc1ccc(Cl)cc1", "=", 1510],
  ["O=[N+]([O-])c1cccc(Cn2cc(CO)c3ccccc32)c1", "=", 39],
  ["O=Cc1cn(Cc2ccc(Cl)cc2)c2ccc(F)cc12", "=", 290],
  ["Cc1ccc(Cn2cc(CO)c3cc(F)ccc32)cc1", "=", 10],
  ["O=Cc1cn(Cc2ccc(Cl)cc2)c2ccccc12", "=", 250],
  ["O=C(NC1CCCCC1)OCc1cn(Cc2ccc(Cl)cc2)c2ccccc12", "=", 20],
  ["O=Cc1cn(Cc2ccc(C(F)(F)F)cc2)c2ccccc12", "=", 1580]
]}

----------
assay: Stability of compound at pH 2; format: physicochemical; details: buffer
MEASURED ENDPOINT: Stability

{"columns": ["COMPOUND", "MEASURED ENDPOINT", "DATA VALUE"],
 "data": [
  ["Cc1cccc(Cn2cc(C=O)c3ccccc32)c1", "Stability", "Stable"],
  ["O=Cc1cn(Cc2cccc(Cl)c2)c2ccc(F)cc12", "Stability", "Stable"],
  ["O=Cc1cn(Cc2cccc(F)c2)c2ccccc12", "Stability", "Stable"],
  ["Cc1ccc(Cn2cc(CO)c3cc(F)ccc32)cc1", "Stability", "Unstable"],
  ["O=Cc1cn(Cc2cccc(Cl)c2)c2ccccc12", "Stability", "Stable"],
  ["O=Cc1cn(Cc2ccccc2F)c2ccccc12", "Stability", "Stable"],
  ["Cc1ccc(Cn2cc(C=O)c3ccccc32)cc1", "Stability", "Stable"],
  ["O=Cc1cn(Cc2cccc([N+](=O)[O-])c2)c2ccccc12", "Stability", "Stable"],
  ["O=[N+]([O-])c1ccc(Cn2cc(CO)c3ccccc32)cc1", "Stability", "Unstable"],
  ["COc1ccc(Cn2cc(CO)c3ccccc32)cc1", "Stability", "Unstable"],
  ["O=CC1C(=O)N(Cc2ccc(Cl)cc2)c2cc(Cl)ccc21 (stereo not drawn)", "Stability", "Stable"],
  ["O=Cc1cn(Cc2ccc(Cl)cc2Cl)c2ccccc12", "Stability", "Stable"],
  ["Cc1ccc(Cn2cc(CO)c3ccccc32)cc1", "Stability", "Unstable"],
  ["O=Cc1cn(Cc2ccc(Cl)cc2)c2cc(F)ccc12", "Stability", "Stable"],
  ["Cn1cc(CO)c2cc(F)ccc21", "Stability", "Unstable"],
  ["OCc1cn(Cc2ccc(Br)c(Br)c2)c2ccccc12", "Stability", "Unstable"],
  ["O=Cc1cn(Cc2ccc([N+](=O)[O-])cc2)c2ccccc12", "Stability", "Stable"],
  ["OCc1cn(Cc2ccc(Cl)c(Cl)c2)c2ccccc12", "Stability", "Unstable"],
  ["OCc1cn(Cc2cccc(I)c2)c2ccccc12", "Stability", "Unstable"],
  ["OCc1cn(Cc2cccc(Br)c2)c2ccccc12", "Stability", "Unstable"],
  ["O=Cc1cn(Cc2ccc(Br)c(Br)c2)c2ccccc12", "Stability", "Stable"],
  ["OCc1cn(Cc2ccccc2Cl)c2ccccc12", "Stability", "Unstable"],
  ["OCc1cn(Cc2cccc(F)c2)c2ccc(Cl)cc12", "Stability", "Unstable"]
]}

// data source = ChEMBL document CHEMBL1772965
